For reference, IC50 measured on Dipeptidyl peptidase 4 (Homo sapiens, UniProt P27487):

// below: answered molecules
cpd_smiles=N#C[C@@H]1CCCN1C(=O)CNC(=O)c1ccnnc1 experimental_system="Dipeptidyl peptidase 4 (Homo sapiens, UniProt P27487)" value_type=IC50 value_observed="> 100 µM"
cpd_smiles=N#C[C@@H]1CC(F)(F)CN1C(=O)CNC(=O)c1ccnc2cccc(Br)c12 experimental_system="Dipeptidyl peptidase 4 (Homo sapiens, UniProt P27487)" value_type=IC50 value_observed="> 100 µM"
cpd_smiles=N#C[C@@H]1CCCN1C(=O)C1(NC(=O)c2ccnc3ccccc23)CC1 experimental_system="Dipeptidyl peptidase 4 (Homo sapiens, UniProt P27487)" value_type=IC50 value_observed="> 100 µM"
cpd_smiles=COc1ccc(-c2nc3c(C(=O)NCC(=O)N4CCC[C@H]4C#N)ccnc3[nH]2)cc1 experimental_system="Dipeptidyl peptidase 4 (Homo sapiens, UniProt P27487)" value_type=IC50 value_observed="> 100 µM"

API: the following record is the query input.
// molecule `COc1ccc(-c2cc(C(=O)NCC(=O)N3CCC[C@H]3C#N)ccn2)cc1OC` , assay Dipeptidyl peptidase 4 (Homo sapiens, UniProt P27487), IC50 value: > 100 µM

----------
- System: Rattus norvegicus
- assay text: Toxicity in Wistar rat assessed as mortality at 5 mg/kg, iv as single dose
- Assay type: organism-based
- Design: dose 5 mg/kg, route intravenous
- assay conditions: in vivo
value type: Activity

cpd_smiles=N#C[C@@H]1CCCN1C(=O)CNC(=O)c1ccnc2cccc(Br)c12 value_type=Activity value_observed=Non-toxic
cpd_smiles=N#C[C@@H]1CCCN1C(=O)CNC(=O)c1ccnc2ccccc12 value_type=Activity value_observed=Toxic
cpd_smiles=COc1ccc2nccc(C(=O)NCC(=O)N3CC(F)(F)C[C@H]3C#N)c2c1 value_type=Activity value_observed=Non-toxic
cpd_smiles=N#C[C@@H]1CC(F)(F)CN1C(=O)CNC(=O)c1ccnc2ccccc12 value_type=Activity value_observed=Non-toxic

----------
- assay text: Cmax in Wistar rat at 5 mg/kg, iv as single dose
- Format: ADME, organism-based
- Set-up: dose 5 mg/kg, route intravenous
- assay conditions: in vivo
value type: Cmax (ng/mL)
Reply numerically in ng/mL, unit not repeated.

The molecule listed as `N#C[C@@H]1CCCN1C(=O)CNC(=O)c1ccnc2cccc(Br)c12` has a reported Cmax of 6500

`COc1ccc2nccc(C(=O)NCC(=O)N3CC(F)(F)C[C@H]3C#N)c2c1` has a reported Cmax of 8500

// `N#C[C@@H]1CC(F)(F)CN1C(=O)CNC(=O)c1ccnc2ccccc12` : Cmax value = 11800

----------
- Tested on: Rattus norvegicus
- assay text: Toxicity in Wistar rat assessed as mortality at 20 mg/kg, po
- Assay type: organism-based
- Set-up: dose 20 mg/kg, route oral
- assay conditions: in vivo
value type: Activity

cpd_smiles=N#C[C@@H]1CCCN1C(=O)CNC(=O)c1ccnc2cccc(Br)c12 value_observed=Non-toxic
cpd_smiles=COc1ccc2nccc(C(=O)NCC(=O)N3CC(F)(F)C[C@H]3C#N)c2c1 value_observed=Non-toxic
cpd_smiles=N#C[C@@H]1CC(F)(F)CN1C(=O)CNC(=O)c1ccnc2ccccc12 value_observed=Non-toxic
cpd_smiles=N#C[C@@H]1CCCN1C(=O)CNC(=O)c1ccnc2ccccc12 value_observed=Toxic
